Can you tell me self-cleavage kobs at 160 uM GlcN6P for the items I'm about to list?
B1: glmS ribozyme (parent)
chain: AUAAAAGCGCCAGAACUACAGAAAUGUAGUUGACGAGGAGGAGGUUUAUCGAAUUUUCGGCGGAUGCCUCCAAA

variants of: B1; assay: self-cleavage kobs at 160 uM GlcN6P; higher = faster cleavage; RNA array; settings: with glucosamine-6-phosphate
Fewer inactive variants are shown than the library holds.

Record excerpt, results attached:
{"columns": ["var", "self-cleavage kobs at 160 uM GlcN6P"],
 "data": [
  ["U47A U65G U69C", "0.000128 s⁻¹"],
  ["G9A C71G", "< 1e-05 s⁻¹"],
  ["G40U U55A", "0.000217 s⁻¹"],
  ["C16A C58U", "< 1e-05 s⁻¹"],
  ["G9C G62U", "< 1e-05 s⁻¹"]
]}

Record self-cleavage kobs at 160 uM GlcN6P per entry; entries follow.
1. G9U C16G G32U G38A A42G
2. G66U C67G
3. G9U U31A U65G
4. G9A C50A
5. G66A C68U

Result block:
["< 1e-05 s⁻¹", "4.82e-05 s⁻¹", "< 1e-05 s⁻¹", "< 1e-05 s⁻¹", "0.000531 s⁻¹"]
